Give measured EC50 for each item. Keep answers brief.
Test System: Streptokinase A (Streptococcus pyogenes serotype M1)
Sequence (P10520 whole entry): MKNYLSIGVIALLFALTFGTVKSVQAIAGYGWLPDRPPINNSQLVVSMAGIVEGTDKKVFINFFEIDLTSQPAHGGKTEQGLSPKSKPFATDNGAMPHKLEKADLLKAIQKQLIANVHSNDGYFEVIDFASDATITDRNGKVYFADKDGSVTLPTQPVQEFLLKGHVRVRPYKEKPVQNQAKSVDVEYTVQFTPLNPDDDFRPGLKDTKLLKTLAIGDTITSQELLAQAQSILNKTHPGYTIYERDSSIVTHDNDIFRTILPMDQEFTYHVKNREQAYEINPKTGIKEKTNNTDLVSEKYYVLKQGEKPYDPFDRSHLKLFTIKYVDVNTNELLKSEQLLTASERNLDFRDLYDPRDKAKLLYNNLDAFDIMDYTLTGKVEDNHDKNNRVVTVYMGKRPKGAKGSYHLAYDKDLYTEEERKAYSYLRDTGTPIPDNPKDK
Method Notes: viability-normalized secreted streptokinase activity reduction – plasminogen activation absorbance, OD405, dose response (AID 1914);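 note: secreted streptokinase activity via plasminogen activation per viability signal from cell pellet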
Type: functional, Streptococcus pyogenes M1 GAS
The source made the active and inactive calls. Cut-off read from the data, not from the text of the source: actives have a measured EC50 and inactives only a lower limit.

Which value of EC50 has been reported for Cc1ccc(C(=O)C2=C(O)C(=O)N(Cc3ccco3)C2c2cccc(Br)c2)o1 (centres undefined) in the records? > 150 µM (not active)

Which value of EC50 has been reported for Oc1c(C(Nc2ccccn2)c2cccnc2)cc(Cl)c2cccnc12 (centres undefined) in the records? > 150 µM (not active)

Which value of EC50 has been reported for Cc1[nH]c(N=Nc2ccccc2)nc1N=Nc1ccccc1 in the records? 23.4 µM (active)

Which value of EC50 has been reported for O=S(=O)(N[C@H]1C[C@@H](NS(=O)(=O)OCC(Cl)(Cl)Cl)C2CCCCC21)OCC(Cl)(Cl)Cl (some centres undefined) in the records? 1.7 µM (active)

Which value of EC50 has been reported for COc1cccc(N/N=C/c2cccc(Br)c2O)c1 in the records? 19.6 µM (active)

Which value of EC50 has been reported for O=C(Nc1nc2ccccc2[nH]1)c1cccc(Cl)c1 in the records? > 150 µM (not active)

Which value of EC50 has been reported for Fc1ccc(-c2cc(C(F)(F)F)nc(N3CCCCC3)n2)cc1 in the records? 6.14 µM (active)

Which value of EC50 has been reported for O=C(CC(=O)c1cc(Cl)ccc1O)c1ccccc1 in the records? > 150 µM (not active)

Which value of EC50 has been reported for O=C(CNc1ccc2ccccc2c1)N/N=C/c1ccc([N+](=O)[O-])o1 in the records? > 150 µM (not active)

Which value of EC50 has been reported for Cc1c(C(=O)NNC(=O)c2ccccc2O)oc2ccc(Br)cc12 in the records? > 150 µM (not active)

Which value of EC50 has been reported for Cc1ccc(O)c(C2=NNC(c3ccc(Cl)cc3)C2)c1 (centres undefined) in the records? > 150 µM (not active)

Which value of EC50 has been reported for O=C(CNc1cccc2ccccc12)N/N=C/c1ccc[nH]1 in the records? > 150 µM (not active)

Which value of EC50 has been reported for Cc1cccc(Nc2nc(N)nc(CN3CCN(c4ccc(F)cc4)CC3)n2)c1 in the records? > 150 µM (not active)

Which value of EC50 has been reported for Cc1ccc2[nH]c(C(=O)N/N=C/c3ccccc3O)c(C)c2c1 in the records? > 150 µM (not active)

###

Method Notes: NIH3T3 cell viability loss – ATP luminescence, mouse fibroblasts, counter-screen, dose response (AID 2010);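 note: cells exposed to compound for about 90 hours before reading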
Format: functional, cell-based
Give measured EC50 for each item. Keep answers brief.

Which value of EC50 has been reported for COc1ccc(CN2CCN(Cc3cccc4nonc34)CC2CCO)c(C)c1C (stereo not drawn) in the records? > 60 µM (not active)

Which value of EC50 has been reported for COc1cccc(N/N=C/c2cccc(Br)c2O)c1 in the records? > 60 µM (not active)

Which value of EC50 has been reported for CC(=O)NC(c1ccc(C)cc1)c1cc([N+](=O)[O-])c2cccnc2c1O (stereo not drawn) in the records? < 6 µM (inconclusive)

###

Method Notes: NIH3T3 cell viability loss – ATP luminescence, mouse fibroblasts, counter-screen, dose response (AID 2010);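 note: cells exposed to compound for about 90 hours before reading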
Type: functional, cell-based
Give measured EC50 for each item. Keep answers brief.

Which value of EC50 has been reported for Cc1ccccc1S(=O)(=O)Cc1ccc(C(=O)NCCN2CCN(Cc3ccccc3)CC2)o1 in the records? > 60 µM (not active)

Which value of EC50 has been reported for CN(C)CCCN(C(=O)c1cc2ccccc2oc1=O)c1nc2c(F)cccc2s1 in the records? > 60 µM (not active)

Which value of EC50 has been reported for Cc1cccc(N2CCN(C(=O)c3ccc(Cl)c(S(=O)(=O)N4CCc5ccccc5C4)c3)CC2)c1C in the records? > 60 µM (inconclusive)

Which value of EC50 has been reported for CC(C)Oc1cccc(C(=O)C2CCCN(Cc3cnc(N4CCOCC4)s3)C2)c1 (centres undefined) in the records? > 30 µM (not active)
